# Tested system: human ACC2 (Homo sapiens (Human), UniProt O00763)
# Sequence (O00763 129-2458): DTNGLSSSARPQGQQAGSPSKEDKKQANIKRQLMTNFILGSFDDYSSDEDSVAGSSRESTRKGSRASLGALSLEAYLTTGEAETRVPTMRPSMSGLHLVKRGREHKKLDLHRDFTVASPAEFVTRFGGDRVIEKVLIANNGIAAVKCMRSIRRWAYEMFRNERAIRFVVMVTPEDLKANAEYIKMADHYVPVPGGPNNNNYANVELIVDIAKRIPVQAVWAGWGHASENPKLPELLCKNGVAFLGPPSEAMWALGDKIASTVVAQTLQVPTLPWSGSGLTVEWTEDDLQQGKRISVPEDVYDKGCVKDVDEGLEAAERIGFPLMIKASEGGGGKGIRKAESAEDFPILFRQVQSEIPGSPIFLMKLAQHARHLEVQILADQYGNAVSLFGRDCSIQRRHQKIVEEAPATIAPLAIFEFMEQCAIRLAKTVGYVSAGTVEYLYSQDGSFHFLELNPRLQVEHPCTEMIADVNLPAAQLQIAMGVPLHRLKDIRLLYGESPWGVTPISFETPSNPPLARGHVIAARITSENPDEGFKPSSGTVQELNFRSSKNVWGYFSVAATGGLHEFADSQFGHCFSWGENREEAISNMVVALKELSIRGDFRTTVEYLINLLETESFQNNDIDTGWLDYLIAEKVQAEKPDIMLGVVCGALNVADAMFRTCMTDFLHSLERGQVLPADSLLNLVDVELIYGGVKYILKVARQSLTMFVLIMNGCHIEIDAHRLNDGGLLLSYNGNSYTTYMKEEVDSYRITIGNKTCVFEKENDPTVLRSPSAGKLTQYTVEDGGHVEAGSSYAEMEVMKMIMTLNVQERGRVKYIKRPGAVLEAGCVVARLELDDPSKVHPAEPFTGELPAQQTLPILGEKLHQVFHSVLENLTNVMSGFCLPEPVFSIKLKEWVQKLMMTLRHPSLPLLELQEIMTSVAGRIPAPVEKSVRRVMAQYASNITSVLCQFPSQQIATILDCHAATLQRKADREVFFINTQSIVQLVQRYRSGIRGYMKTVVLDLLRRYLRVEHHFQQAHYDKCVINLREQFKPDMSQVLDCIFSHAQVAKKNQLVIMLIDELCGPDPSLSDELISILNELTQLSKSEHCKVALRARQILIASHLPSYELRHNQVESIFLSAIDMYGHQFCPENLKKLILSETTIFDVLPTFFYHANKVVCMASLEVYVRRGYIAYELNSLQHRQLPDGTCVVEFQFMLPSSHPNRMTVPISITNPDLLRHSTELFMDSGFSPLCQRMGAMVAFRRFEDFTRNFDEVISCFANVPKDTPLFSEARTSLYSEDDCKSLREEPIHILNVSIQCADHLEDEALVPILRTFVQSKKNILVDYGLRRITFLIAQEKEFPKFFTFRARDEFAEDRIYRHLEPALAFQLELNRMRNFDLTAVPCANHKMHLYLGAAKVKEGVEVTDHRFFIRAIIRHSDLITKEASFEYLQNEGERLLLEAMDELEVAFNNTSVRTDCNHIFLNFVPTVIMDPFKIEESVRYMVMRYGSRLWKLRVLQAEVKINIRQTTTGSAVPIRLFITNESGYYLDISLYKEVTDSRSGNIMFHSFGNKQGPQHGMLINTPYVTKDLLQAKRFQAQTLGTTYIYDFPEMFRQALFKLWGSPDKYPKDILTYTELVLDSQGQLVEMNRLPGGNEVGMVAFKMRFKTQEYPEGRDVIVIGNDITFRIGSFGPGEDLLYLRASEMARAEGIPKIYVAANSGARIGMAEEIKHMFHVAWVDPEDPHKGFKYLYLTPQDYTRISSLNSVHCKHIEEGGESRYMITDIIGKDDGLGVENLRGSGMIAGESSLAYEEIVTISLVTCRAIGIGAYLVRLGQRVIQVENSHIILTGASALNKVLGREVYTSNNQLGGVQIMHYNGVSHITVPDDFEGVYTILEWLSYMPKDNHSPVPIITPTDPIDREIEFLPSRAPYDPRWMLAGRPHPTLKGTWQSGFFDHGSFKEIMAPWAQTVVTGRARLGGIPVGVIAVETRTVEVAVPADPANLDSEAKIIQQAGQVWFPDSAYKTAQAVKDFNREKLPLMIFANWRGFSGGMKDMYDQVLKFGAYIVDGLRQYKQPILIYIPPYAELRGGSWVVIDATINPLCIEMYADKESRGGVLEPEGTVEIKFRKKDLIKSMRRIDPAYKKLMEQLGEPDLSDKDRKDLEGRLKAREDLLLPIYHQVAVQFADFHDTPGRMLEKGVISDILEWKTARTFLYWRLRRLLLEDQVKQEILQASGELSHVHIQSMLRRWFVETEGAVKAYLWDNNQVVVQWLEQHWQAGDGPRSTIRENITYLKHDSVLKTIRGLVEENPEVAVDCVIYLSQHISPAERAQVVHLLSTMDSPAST
pIC50: −log10 of the molar value.
Value kind: pIC50

(P) Cc1cc(OC2CC2)ccc1N1CC[C@@H](Oc2ccc([C@H](C)NC(=O)c3cnoc3C)cc2)C1
(Q) C[C@H](NC(=O)c1cc[nH]n1)c1ccc(O[C@@H]2CCN(c3ccc(OCC4CC4)cc3)C2)cc1
(R) CC(=O)N[C@@H](C)c1ccc(OC2CCN(c3ccc(F)cc3F)C2)cc1 (stereo partly shown)
Enquiry: Kindly sort the 3 molecules above from the smallest to the largest pIC50. Output the labels ranked as instructed.
Return: R, Q, P
(R: 6.05, Q: 6.44, P: 7.05)

(1) C[C@H](NC(=O)C1(C#N)CC1)c1ccc(O[C@@H]2CCN(c3ccc(OCC4CC4)cc3)C2)cc1
(2) CC(=O)Nc1cccc(C(=O)N[C@@H](C)c2ccc(O[C@@H]3CCN(c4ccc(OCC5CC5)cc4)C3)cc2)c1C
Enquiry: When the recorded pIC50 values are compared, which is smaller: that of 1 or that of 2 ? Record your answer as the label of the chosen record.
Return: 2
(2: 6.29, 1: 6.56)

(1) C[C@H](NC(=O)Cc1cc[nH]c1)c1ccc(O[C@@H]2CCN(c3ccc(OCC4CC4)cc3)C2)cc1
(2) C[C@H](NC(=O)CC#N)c1ccc(O[C@@H]2CCN(c3ccc(OCC4CC4)cc3)C2)cc1
Enquiry: Sort 1 and 2 by pIC50 descending and give the first. Record your answer as the label of the chosen record.
Return: 2
(2: 7.15, 1: 6.40)

###

// pIC50 collected for human ACC2 (Homo sapiens (Human))
pIC50: −log10 of the molar value.
Value kind: pIC50

Illustrative cases are given below, each with its answer.
INSERT INTO results (compound, tested_system, measured_number) VALUES
  ('CC(=O)N[C@@H](C)c1ccc(OC2CCN(c3ccc4c(c3)OCCO4)C2)cc1 (some centres unmarked)', 'human ACC2 (Homo sapiens (Human))', 6.64),
  ('CC(C#N)C(=O)N[C@@H](C)c1ccc(O[C@@H]2CCN(c3ccc(OCC4CC4)cc3)C2)cc1 (some centres unmarked)', 'human ACC2 (Homo sapiens (Human))', 7.25);

(a) C[C@H](NC(=O)c1cnn(C(F)F)c1)c1ccc(O[C@@H]2CCN(c3ccc(OCC4CC4)cc3)C2)cc1
(b) CC(=O)N[C@@H](C)c1ccc(OC2CCN(c3ccc(OCC4CC4)cc3C)C2)cc1 (some centres unmarked)
(c) C[C@H](NC(=O)N1CCC1)c1ccc(OC2CCN(c3ccc(OCC4CC4)cc3)C2)cc1 (some centres unmarked)
Enquiry: Sort these compounds on pIC50 so the largest reading comes first. Output the labels ranked as instructed.
Return: b, a, c

###

// pIC50 collected for human ACC2 (Homo sapiens (Human), UniProt O00763)
pIC50: −log10 of the molar value.
Value kind: pIC50

INSERT INTO measurements (molecule, value_kind, measured_number) VALUES
  ('Cc1c(C(=O)N[C@@H](C)c2ccc(O[C@@H]3CCN(c4ccc(OCC5CC5)cc4)C3)cc2)cnn1C [Example 2.47]', 'pIC50', 6.41);

(A) Cc1cc(OC2CC2)ccc1N1CC[C@@H](Oc2ccc([C@H](C)NC(=O)c3cn[nH]c3)cc2)C1 [Example 2.64]
(B) C[C@H](NC(=O)c1cn(C)nc1C(F)F)c1ccc(O[C@@H]2CCN(c3ccc(OCC4CC4)cc3)C2)cc1 [Example 2.45]
Enquiry: When the recorded pIC50 values are compared, which is smaller: that of A or that of B ? Record your answer as the label of the chosen record.
Return: B
(B: 6.00, A: 6.45)
